- Target entity: hAM1R (human, UniProt Q16602)
- Experiment: cell-based or functional assay
Bridge positions count the residues as written; N and C are the ends. Square brackets hold non-standard residues; d marks the D form. Ends that are not written are not given here. Hyp = O=C(O)[C@@H]1C[C@@H](O)CN1
Endpoint name: hAM1R EC50 (cAMP) (nM)
Numbers only, in nM.

Each of the following entries comes with a recorded value; kindly state hAM1R EC50 (cAMP) for each.
1. GCRFGTCTVQRLAHQIYQFTDKDKDNVAPRSKISPQGY [SEQ ID NO: 154]
2. GCRTGTCTVQRLAHQIYQFTDKDKDNVAPRSKIGPNG[Hyp]-NH2 (disulfide 2-7 (inferred); ends not checked) [SEQ ID NO: 157]

Given back:
1. 2980
2. 2980

Origin of the recorded values: patent US12139520B2
